viability, T/C for assorted compounds
# Tested on: 349418-098-R tumor spheroid viability
# assay: Anticancer human tumor 349418-098-R patient-derived lung adenocarcinoma cell line growth inhibition
# experimental-context: second compound 0.00949 µM; first compound 10 µM; stronger effect = lower value; spheroids with HUVEC and MSC
Dear colleague, please return just the value in %, with no unit written.

Here are 5 compounds together with their reported answers.
>  <compound>
Cc1cc(C)c(CNC(=O)c2cc(-c3ccc(CN4CCOCC4)cc3)cc3c2cnn3C2CCCC2)c(=O)[nH]1 + CC[C@@]1(O)C(=O)OCc2c1cc1n(c2=O)Cc2cc3c(CN(C)C)c(O)ccc3nc2-1

>  <reported-metric>
viability, T/C

>  <unit-abbrev>
%

>  <test-value>
31.4

$$$$
>  <compound>
CC1COCCN1c1cc(-c2ccnn2C)c2ccnc(-c3ccn[nH]3)c2n1 (stereo unspecified) + CC[C@@]1(O)C(=O)OCc2c1cc1n(c2=O)Cc2cc3c(CN(C)C)c(O)ccc3nc2-1

>  <reported-metric>
viability, T/C

>  <unit-abbrev>
%

>  <test-value>
12

$$$$
>  <compound>
CC(C)n1c(=O)n(C)c2cnc3cc(F)c(-c4ccc(OCCCN5CCCCC5)nc4)cc3c21 + CC[C@@]1(O)C(=O)OCc2c1cc1n(c2=O)Cc2cc3c(CN(C)C)c(O)ccc3nc2-1

>  <reported-metric>
viability, T/C

>  <unit-abbrev>
%

>  <test-value>
28.7

$$$$
>  <compound>
COc1cc(C)[nH]c(=O)c1CN1CCc2c(Cl)cc(C(OC)C3COC3)c(Cl)c2C1=O (stereo unspecified) + CC[C@@]1(O)C(=O)OCc2c1cc1n(c2=O)Cc2cc3c(CN(C)C)c(O)ccc3nc2-1

>  <reported-metric>
viability, T/C

>  <unit-abbrev>
%

>  <test-value>
94.8

$$$$
>  <compound>
[2H]c1nc(C)nc([2H])c1-c1cc(NC[C@@H](C)c2cccc3c(C(=O)NC)ccnc23)ncn1 + CC[C@@]1(O)C(=O)OCc2c1cc1n(c2=O)Cc2cc3c(CN(C)C)c(O)ccc3nc2-1

>  <reported-metric>
viability, T/C

>  <unit-abbrev>
%

>  <test-value>
97.2

$$$$

Proceeding to the next compound to report its viability, T/C.
Param item = COc1ccc([C@@H](O)c2cc(-c3ncnc4cc(N5CCOCC5)ccc34)c(F)cc2Cl)nn1 + CC[C@@]1(O)C(=O)OCc2c1cc1n(c2=O)Cc2cc3c(CN(C)C)c(O)ccc3nc2-1 ; retrieve measured viability, T/C.
26.5

----------
# Test system: 349418-098-R tumor spheroid viability
# assay: Anticancer human tumor 349418-098-R cell line growth inhibition;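 note: spheroids exposed to compound for 7 days before measurement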;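 for viability, T/C: percent of vehicle control viability with 100% = DMSO-treated spheroids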
# experimental-context: second compound 94.9 pM; first compound 0.1 µM; stronger effect = lower value; spheroids with HUVEC and MSC
viability, T/C for assorted compounds
Dear colleague, please return just the value in %, with no unit written.

Param item = [2H]c1nc(C)nc([2H])c1-c1cc(NC[C@@H](C)c2cccc3c(C(=O)NC)ccnc23)ncn1 + COc1cc2c(cc1O)CCNC21CSC2c3c(OC(C)=O)c(C)c4c(c3C(COC1=O)N1C(O)C3Cc5cc(C)c(OC)c(O)c5C(C21)N3C)OCO4 ; retrieve measured viability, T/C.
99.5

Param item = CC1COCCN1c1cc(-c2ccnn2C)c2ccnc(-c3ccn[nH]3)c2n1 (stereo unspecified) + COc1cc2c(cc1O)CCNC21CSC2c3c(OC(C)=O)c(C)c4c(c3C(COC1=O)N1C(O)C3Cc5cc(C)c(OC)c(O)c5C(C21)N3C)OCO4 ; retrieve measured viability, T/C.
16.2

Param item = Cc1cc(C)c(CNC(=O)c2cc(-c3ccc(CN4CCOCC4)cc3)cc3c2cnn3C2CCCC2)c(=O)[nH]1 + COc1cc2c(cc1O)CCNC21CSC2c3c(OC(C)=O)c(C)c4c(c3C(COC1=O)N1C(O)C3Cc5cc(C)c(OC)c(O)c5C(C21)N3C)OCO4 ; retrieve measured viability, T/C.
97.9

Param item = COc1cc(C)[nH]c(=O)c1CN1CCc2c(Cl)cc(C(OC)C3COC3)c(Cl)c2C1=O (stereo unspecified) + COc1cc2c(cc1O)CCNC21CSC2c3c(OC(C)=O)c(C)c4c(c3C(COC1=O)N1C(O)C3Cc5cc(C)c(OC)c(O)c5C(C21)N3C)OCO4 ; retrieve measured viability, T/C.
111

Param item = COc1ccc([C@@H](O)c2cc(-c3ncnc4cc(N5CCOCC5)ccc34)c(F)cc2Cl)nn1 + COc1cc2c(cc1O)CCNC21CSC2c3c(OC(C)=O)c(C)c4c(c3C(COC1=O)N1C(O)C3Cc5cc(C)c(OC)c(O)c5C(C21)N3C)OCO4 ; retrieve measured viability, T/C.
101

Param item = CC(C)n1c(=O)n(C)c2cnc3cc(F)c(-c4ccc(OCCCN5CCCCC5)nc4)cc3c21 + COc1cc2c(cc1O)CCNC21CSC2c3c(OC(C)=O)c(C)c4c(c3C(COC1=O)N1C(O)C3Cc5cc(C)c(OC)c(O)c5C(C21)N3C)OCO4 ; retrieve measured viability, T/C.
85

----------
# Test system: 349418-098-R tumor spheroid viability
# assay: Anticancer human tumor 349418-098-R cell line growth inhibition;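 note: spheroids exposed to compound for 7 days before measurement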;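 for viability, T/C: percent of vehicle control viability with 100% = DMSO-treated spheroids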
# experimental-context: second compound 10 µM; first compound 0.0949 µM; stronger effect = lower value; spheroids with HUVEC and MSC
viability, T/C for assorted compounds
Dear colleague, please return just the value in %, with no unit written.

Here are 3 compounds together with their reported answers.
>  <compound>
O=C(c1cc(Cc2n[nH]c(=O)c3ccccc23)ccc1F)N1CCN(C(=O)C2CC2)CC1 + Cn1nnc2c(C(N)=O)ncn2c1=O

>  <viability, T/C, %>
103

$$$$
>  <compound>
Cn1ncnc1[C@H]1c2n[nH]c(=O)c3cc(F)cc(c23)N[C@@H]1c1ccc(F)cc1 + Cn1nnc2c(C(N)=O)ncn2c1=O

>  <viability, T/C, %>
95.1

$$$$
>  <compound>
CNCc1ccc(-c2cc(-c3nc(-c4ccc(S(=O)(=O)C(C)C)cc4)cnc3N)on2)cc1 + Cn1nnc2c(C(N)=O)ncn2c1=O

>  <viability, T/C, %>
97.9

$$$$

Proceeding to the next compound to report its viability, T/C.
Param item = Cc1sc2c(c1C)C(c1ccc(Cl)cc1)=NC(CC(=O)Nc1ccc(O)cc1)c1nnc(C)n1-2 (centres undefined) + Cn1nnc2c(C(N)=O)ncn2c1=O ; retrieve measured viability, T/C.
63.7

----------
# Tested on: 349418-098-R tumor spheroid viability
# assay: Anticancer human tumor 349418-098-R cell line growth inhibition;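 note: spheroids exposed to compound for 7 days before measurement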;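 for viability, T/C: percent of vehicle control viability with 100% = DMSO-treated spheroids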
# experimental-context: second compound 94.9 pM; first compound 1 µM; stronger effect = lower value; spheroids with HUVEC and MSC
# Method: Multicellular complex tumor spheroid response to DNA repair inhibitors in combination with DNA-damaging drugs This study explores the anticancer activities of DNA-damaging drugs and inhibitors of DNA damage repair, both as single agents and in combinations. […] Twenty-six patient-derived or established malignant cell lines were evaluated representing sarcoma, melanoma, small cell lung cancer (SCLC), non-small cell lung cancer (NSCLC), as well as bladder, ovarian and pancreatic cancers. […]
reported-metric: viability, T/C

>  <molecule>
COc1ccc([C@@H](O)c2cc(-c3ncnc4cc(N5CCOCC5)ccc34)c(F)cc2Cl)nn1 + COc1cc2c(cc1O)CCNC21CSC2c3c(OC(C)=O)c(C)c4c(c3C(COC1=O)N1C(O)C3Cc5cc(C)c(OC)c(O)c5C(C21)N3C)OCO4

>  <viability, T/C>
94.3%

$$$$

Param item = COc1cc(C)[nH]c(=O)c1CN1CCc2c(Cl)cc(C(OC)C3COC3)c(Cl)c2C1=O (configuration not stated) + COc1cc2c(cc1O)CCNC21CSC2c3c(OC(C)=O)c(C)c4c(c3C(COC1=O)N1C(O)C3Cc5cc(C)c(OC)c(O)c5C(C21)N3C)OCO4 ; retrieve measured viability, T/C.
99.2%

----------
# Test system: 349418-098-R tumor spheroid viability
# assay: Anticancer human tumor 349418-098-R cell line growth inhibition;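 note: spheroids exposed to compound for 7 days before measurement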
# experimental-context: curve of first compound; second compound 0.0949 µM; spheroids with HUVEC and MSC
# Protocol: Multicellular complex tumor spheroid response to DNA repair inhibitors in combination with DNA-damaging drugs This study explores the anticancer activities of DNA-damaging drugs and inhibitors of DNA damage repair, both as single agents and in combinations. […] Twenty-six patient-derived or established malignant cell lines were evaluated representing sarcoma, melanoma, small cell lung cancer (SCLC), non-small cell lung cancer (NSCLC), as well as bladder, ovarian and pancreatic cancers. […]
pIC50: −log10 of the molar value.
reported-metric: pIC50

Here are 4 compounds together with their reported answers.
>  <compound>
Cc1sc2c(c1C)C(c1ccc(Cl)cc1)=NC(CC(=O)Nc1ccc(O)cc1)c1nnc(C)n1-2 (stereo not given) + CC[C@@]1(O)C(=O)OCc2c1cc1n(c2=O)Cc2cc3c(CN(C)C)c(O)ccc3nc2-1

>  <reported-metric>
pIC50

>  <test-value>
> 8.02

$$$$
>  <compound>
[2H]c1nc(C)nc([2H])c1-c1cc(NC[C@@H](C)c2cccc3c(C(=O)NC)ccnc23)ncn1 + CC[C@@]1(O)C(=O)OCc2c1cc1n(c2=O)Cc2cc3c(CN(C)C)c(O)ccc3nc2-1

>  <reported-metric>
pIC50

>  <test-value>
> 7.50

$$$$
>  <compound>
COc1ccc([C@@H](O)c2cc(-c3ncnc4cc(N5CCOCC5)ccc34)c(F)cc2Cl)nn1 + CC[C@@]1(O)C(=O)OCc2c1cc1n(c2=O)Cc2cc3c(CN(C)C)c(O)ccc3nc2-1

>  <reported-metric>
pIC50

>  <test-value>
> 7.50

$$$$
>  <compound>
CC1COCCN1c1cc(-c2ccnn2C)c2ccnc(-c3ccn[nH]3)c2n1 (stereo not given) + CC[C@@]1(O)C(=O)OCc2c1cc1n(c2=O)Cc2cc3c(CN(C)C)c(O)ccc3nc2-1

>  <reported-metric>
pIC50

>  <test-value>
> 7.50

$$$$

Proceeding to the next compound to report its pIC50.
Param item = Cc1cc(C)c(CNC(=O)c2cc(-c3ccc(CN4CCOCC4)cc3)cc3c2cnn3C2CCCC2)c(=O)[nH]1 + CC[C@@]1(O)C(=O)OCc2c1cc1n(c2=O)Cc2cc3c(CN(C)C)c(O)ccc3nc2-1 ; retrieve measured pIC50.
> 7.50
